# Procedure Summary: chemical genetic growth profiling, strain panel (AID 1159580);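 further: tested at 20 µM; growth read once vehicle control cultures reached saturation at 30 °C; 1 = growth at the plate median or of vehicle wells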
# Run Conditions: S. cerevisiae deletion strains, growth OD, locus YJL092W, strain hpr5, stronger effect = lower value
Out of some 5,500 compounds screened, about 2,000 (36%) were called active. Roughly 18% stayed inconclusive and do not appear here. The list shows a part of the results.
Flag rule - normalized growth less than 1 flags 1; the remaining entries get -1.

Below are worked cases with known answers.
C[C@@H]1C[C@@H]([C@H](O)CC2CC(=O)NC(=O)C2)C(=O)[C@@H](C)C1 :: 1
CC[C@@H]1[C@@H](O)N2C3C[C@H]1C1C(O)[C@]4(C[C@@H]12)c1ccccc1N(C)[C@@H]34 (stereo not given in full) :: -1
c1cc2c(cc1[C@H]1OC[C@H]3[C@@H]1CO[C@H]3c1ccc3c(c1)OCO3)OCO2 :: 1

[ask] For COc1ccc(/C=C/C(=O)c2cc(O)ccc2O)cc1 , is the recorded normalized growth below the cut-off of 1?
[reply] 1

[ask] Input CS(=O)(=O)OCCCCOS(C)(=O)=O
[reply] -1

[ask] Another compound to check: C#C[C@]1(O)CCC2C3CCc4cc(OC)ccc4C3CC[C@@]21C (stereo not given in full)
[reply] 1

[ask] Request: CC1(C)CC2C1CCC1(C)OC2(C)CCC1O (stereo not given)
[reply] -1

[ask] Same question, O=C(O)c1cc(=O)c(O)c2c(O)c(O)c(O)cc2c1 this time
[reply] 1

[ask] Now the same for Nc1nccs1
[reply] 1

[ask] Also, CC(COc1ccccc1)N(CCCl)Cc1ccccc1 (stereo not given) please.
[reply] 1
